The reported measurements were obtained from patent US20090099213A1.

subject.of.test: PKB-PIF (Homo sapiens, UniProt P31751)
Construct: fusion partner; made in house
Sequence (P31751 with tags, fused parts or gaps limits assumed): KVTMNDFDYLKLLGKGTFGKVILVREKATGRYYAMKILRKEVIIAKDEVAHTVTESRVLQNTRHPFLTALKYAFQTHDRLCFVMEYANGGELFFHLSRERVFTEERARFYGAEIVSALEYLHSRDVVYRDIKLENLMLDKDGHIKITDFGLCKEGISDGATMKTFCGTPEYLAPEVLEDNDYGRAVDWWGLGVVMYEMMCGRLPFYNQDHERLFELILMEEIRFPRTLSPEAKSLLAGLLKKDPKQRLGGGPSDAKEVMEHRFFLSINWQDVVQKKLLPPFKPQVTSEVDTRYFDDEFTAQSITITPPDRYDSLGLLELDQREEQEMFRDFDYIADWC
measurement.protocol: Measurement of PKB kinase inhibitory activity (IC50), radiometric filter plate assay
Format: biochemical
measurement.parameters: 0.6 nM enzyme, 30 μM ATP, 25 μM AKTide-2T substrate, 20 minutes; read-out: IC50 (PKB activity)
Quick reference: IC50 of the listed items.

Answered examples (2):
- molecule: "NC(c1ccc(Cl)cc1)C1CCN(c2ccnc3[nH]ccc23)CC1 (stereo not shown) [Example 29]"
  subject.of.test: "PKB-PIF (Homo sapiens, UniProt P31751)"
  measured.quantity: "IC50"
  measured.result: "< 10 µM"
- molecule: "NC(c1ccccc1)c1ccc(-c2ncnc3[nH]cnc23)cc1 (stereo not shown)"
  subject.of.test: "PKB-PIF (Homo sapiens, UniProt P31751)"
  measured.quantity: "IC50"
  measured.result: "< 10 µM"

Lookup: State the recorded IC50 for this entry: NC(c1ccc(Cl)cc1)C1CCN(c2ncnc3[nH]c(=O)[nH]c23)CC1 (stereo not shown)
Found: < 10 µM

Lookup: Please do the same for NC(c1ccccc1)C1CCN(c2ncnc3[nH]ccc23)CC1 (stereo not shown) as well.
Found: < 10 µM

Lookup: Same for NC(CCNc1ncnc2[nH]c(=O)[nH]c12)c1ccc(F)cc1 (stereo not shown)
Found: < 10 µM

Lookup: Follow-up item: Clc1ccc(C2(c3ccc(-c4ncnc5[nH]ccc45)cc3)CCNCC2)cc1
Found: < 10 µM

Lookup: Query NC(Cc1ccccc1)c1ccc(-c2ncnc3[nH]cnc23)cc1 (stereo not shown) next
Found: < 10 µM

Lookup: Try NC(c1ccc(Cl)cc1)C1CCN(c2ncnc3[nH]cnc23)CC1 (stereo not shown) next.
Found: < 10 µM

Lookup: Again, but for NC(c1ccc(Cl)cc1)c1ccc(-c2ncnc3[nH]cnc23)cc1 (stereo not shown)
Found: < 10 µM

Lookup: Next molecule: N#CCc1ccc(-c2ncnc3[nH]cnc23)cc1
Found: < 50 µM

====

subject.of.test: PKB-PIF (Homo sapiens)
Construct: fusion partner; made in house
measurement.protocol: Measurement of PKB kinase inhibitory activity (IC50), radiometric filter plate assay
Format: biochemical
measurement.parameters: 0.6 nM enzyme, 30 μM ATP, 25 μM AKTide-2T substrate, 20 minutes; read-out: IC50 (PKB activity)
pIC50: −log10 of the molar value.
measured.quantity: pIC50

Some entries whose results are on file:
- molecule: "CNCCCNc1ncnc2[nH]cnc12"
  pIC50: "> 5.00"
- molecule: "NC(c1ccc(Cl)cc1)C1CCN(c2ncnc3[nH]ccc23)CC1 (stereo not drawn)"
  pIC50: "> 5.00"

--- query ---
Lookup: Give its pIC50 value. Item: NC(=O)C1CCN(c2ncnc3[nH]cnc23)CC1
Found: > 4.30

====

subject.of.test: PKB-PIF (Homo sapiens, UniProt P31751)
Construct: fusion partner; made in house
measurement.protocol: Measurement of PKB kinase inhibitory activity (IC50), radiometric filter plate assay
Assay type: biochemical
measurement.parameters: 0.6 nM enzyme, 30 μM ATP, 25 μM AKTide-2T substrate, 20 minutes; read-out: IC50 (PKB activity)
measured.quantity: IC50

- compound: "Clc1ccc(C2(c3ccc(-c4ccnc5[nH]ccc45)cc3)CCNCC2)cc1 [Example 27]"
  measured.result: "< 10 µM"
- compound: "CNCc1cccc(-c2ncnc3[nH]cnc23)c1 [Example 7, Methyl-(3-(9H-purin-6-yl)benzyl)amine]"
  measured.result: "< 10 µM"
- compound: "NC(c1ccccc1)C1CCN(c2ncnc3[nH]c(=O)[nH]c23)CC1 (stereo not drawn) [Example 13]"
  measured.result: "< 10 µM"

Lookup: Dear colleague, I am looking for the recorded IC50 of the following compound: NC(CCNc1ncnc2[nH]cnc12)c1ccc(Cl)cc1 (stereo not drawn) [Example 5]
Found: < 10 µM

Lookup: Next compound: NCCc1ccc(-c2ncnc3[nH]cnc23)cc1 [Example 9, 2-(4-(9H-Purin-6-yl)phenyl)ethylamine]
Found: < 50 µM

Lookup: Check NCC1CCN(c2ncnc3[nH]cnc23)CC1 [Example 12] too.
Found: < 10 µM
